normalized growth values, listed per item
- METHOD: chemical genetic growth profiling, strain panel (AID 1159580);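 further: tested at 20 µM; growth read once vehicle control cultures reached saturation at 30 °C; 1 = growth at the plate median or of vehicle wells; lower values mean less growth of the strain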
- APPLIED CONDITIONS: S. cerevisiae deletion strains, growth OD, locus YGL173C, strain kem1, active compounds read low
Out of some 5,500 compounds screened, about 2,000 (36%) were called active. Roughly 18% stayed inconclusive and do not appear here. The list shows a part of the results.
ENDPOINT: normalized growth

- CC(=O)O[C@@H]1CC2C(C)(C)[C@H](O)C=C[C@]2(C)C2CC[C@@]3(C)[C@H](c4ccoc4)OC(=O)C4OC43[C@@]21C (some centres not stated): 1.02
- CC(C)(S)[C@@H](N)C(=O)O: 1
- CC(=O)O[C@H]1C[C@@]2(C)[C@@H](C[C@@H](O)C3[C@]2(C)CC[C@H]2[C@H](C)[C@H](O)CC[C@]32C)/C1=C(/CCC=C(C)C)C(=O)O (some centres not stated): 1.01
- O=C(O)C(O)C(O)C(=O)O (configuration not stated): 0.974
- Nc1nc(F)nc2c1ncn2[C@@H]1O[C@H](COP(=O)(O)O)[C@@H](O)[C@@H]1O: 1
- CN(C)C(=O)Oc1ccc[n+](C)c1: 1.01
- CC(=O)O[C@@H]1CC2C(C)(C)[C@H](O)CC[C@]2(C)C2CC[C@@]3(C)[C@H](c4ccoc4)OC(=O)C4OC43[C@@]21C (some centres not stated): 1.01
- NC(N)=NCCN1CCCCCCC1: 1.03
- Clc1ccc(COC(Cn2ccnc2)c2ccc(Cl)cc2Cl)cc1 (configuration not stated): 0.0703
- CCC(=O)OC1[C@@H]2CC3=C4CC(=O)O[C@@H](c5ccoc5)[C@]4(C)CCC3[C@@](C)(C2=O)[C@@H](CC(=O)OC)C1(C)C (some centres not stated): 0.979
- NC(=O)CS(=O)C(c1ccccc1)c1ccccc1 (configuration not stated): 1
- CC(=O)O[C@H]1CC[C@@]2(C)C(C[C@@H](OC(C)=O)[C@]3(C)C2CC[C@@]2(C)[C@H](c4ccoc4)OC(=O)[C@H]4O[C@]423)C1(C)C (some centres not stated): 1

====

normalized growth values, listed per item
- METHOD: chemical genetic growth profiling, strain panel (AID 1159580);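 further: tested at 20 µM; growth read once vehicle control cultures reached saturation at 30 °C; 1 = growth at the plate median or of vehicle wells; lower values mean less growth of the strain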
- APPLIED CONDITIONS: S. cerevisiae deletion strains, growth OD, locus YNL233W, strain BNI4, active compounds read low
Screen size: about 5,500 compounds; about 2,000 (36%) were called active. Roughly 18% stayed inconclusive and do not appear here. Some of the results follow.
ENDPOINT: normalized growth

• CCN1C[C@@]2(COC)C3[C@@H](OC)[C@H]4[C@@H]1[C@]3(C(OC)C[C@H]2O)C1C[C@@]2(O)[C@H](OC(=O)c3ccccc3)C1[C@]4(OC(C)=O)[C@@H](O)[C@@H]2OC (stereo partly specified) = 1.03
• CC(=O)O[C@@H]1CC2C(C)(C)C(=O)C3OC3[C@]2(C)C2CC[C@@]3(C)[C@H](c4ccoc4)OC(=O)C4OC43[C@@]21C (stereo partly specified) = 1.03
• NC(C(=O)O)C(O)C(=O)O (stereo unspecified) = 1.01
• N[C@@H](C(=O)O)[C@@H](O)[C@H](O)[C@H](O)CO = 1.02
• O=C(O)C(O)C(O)C(O)C(O)C(=O)O (stereo unspecified) = 1
• CC(=O)O[C@@H]1CC2C(C)(C)[C@H](O)CC[C@]2(C)C2CC[C@@]3(C)[C@H](c4ccoc4)OC(=O)C4OC43[C@@]21C (stereo partly specified) = 1.04
• CCCCCCCCCCCCCC(=O)OC1C(C)C2(O)C(C=C(CO)CC3(O)C(=O)C(C)=CC32)C2C(C)(C)C12OC(C)=O (stereo unspecified) = 1
• CC(C)(S)[C@@H](N)C(=O)O = 1.02
• CC(=O)OC1CC(O)C(C)(C)C2CC(=O)C3(C)C(CCC4(C)C(c5ccoc5)OC(=O)C5OC543)C12C (stereo unspecified) = 0.987
• CC(=O)O[C@@H]1CC2C(C)(C)[C@H](O)CC[C@]2(C)C2CC[C@@]3(C)[C@H](c4ccoc4)OC(=O)[C@H]4O[C@]43[C@@]21C (stereo partly specified) = 1.02
• COC1C=CC23c4cc5c(cc4CN(CC2O)[C@@H]3C1)OCO5 (stereo partly specified) = 1.04

Data origin: PubChem BioAssay AID1159580
